- experiment.description: SU-DIPG-VI glioma cell viability, MIPE4.0 library, CellTiter-Glo luminescence, qHTS (AID 1347066);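 note: cells exposed to compound for 48 hours before readout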
- condition.description: CellTiter-Glo ATP luminescence
Results filed as inconclusive are left out. The source made the active and inactive calls. No cut-off is given here; in the data, nearly all actives have AC50 up to about 30 µM.
Labels: active, inactive

{"compound": "C[C@]12C=CC(=O)C=C1CC[C@@H]1[C@@H]2C(=O)C[C@@]2(C)[C@H]1CC[C@]2(O)C(=O)CO", "answer.label": "inactive"}
{"compound": "CCCCc1oc2ccccc2c1C(=O)c1cc(I)c(OCCN(CC)CC)c(I)c1", "answer.label": "active"}
{"compound": "CS(=O)(=O)OCCCCOS(C)(=O)=O", "answer.label": "inactive"}
{"compound": "Oc1c(Cl)cc(Cl)c2cccnc12", "answer.label": "active"}
{"compound": "NNCCc1ccccc1", "answer.label": "inactive"}
{"compound": "O=C1CCC(N2C(=O)c3ccccc3C2=O)C(=O)N1 (stereo not given)", "answer.label": "inactive"}
{"compound": "CC[C@H](C)C(=O)O[C@H]1C[C@@H](C)C=C2C=C[C@H](C)[C@H](CC[C@@H]3C[C@@H](O)CC(=O)O3)[C@H]21", "answer.label": "inactive"}
{"compound": "CC1(C)O[C@@H]2C[C@H]3[C@@H]4CCC5=CC(=O)C=C[C@]5(C)[C@@]4(F)[C@@H](O)C[C@]3(C)[C@]2(C(=O)CO)O1", "answer.label": "inactive"}
{"compound": "Cn1c(=O)c(Oc2ccc(F)cc2F)cc2cnc(NC3CCOCC3)nc21", "answer.label": "inactive"}
{"compound": "CN(C)CCOc1ccc(-c2nc(-c3ccc4c(c3)CC/C4=N\\O)c(-c3ccncc3)[nH]2)cc1", "answer.label": "active"}
{"compound": "O=C(C1CCCCC1)N1CC(=O)N2CCc3ccccc3C2C1 (stereo not given)", "answer.label": "inactive"}
{"compound": "NCCc1ccc(O)c(O)c1", "answer.label": "inactive"}
{"compound": "COc1cc2nc(N(C)CCCNC(=O)C3CCCO3)nc(N)c2cc1OC (stereo not given)", "answer.label": "inactive"}
{"compound": "NC(N)=NC(=O)c1nc(Cl)c(N)nc1N", "answer.label": "inactive"}
{"compound": "CCn1cc(C(=O)O)c(=O)c2cc(F)c(N3CCN(C)CC3)cc21", "answer.label": "inactive"}

* * *

- experiment.description: activators of macrophage pro-inflammatory response, cell-based, murine, luminescence (AID 652131)
- condition.description: murine macrophage pro-inflammatory reporter, stronger effect = higher value
Quick rule for you: z-score at 0.3 or higher means met, lower means not met.

{"chemical.smiles": "COc1ccc(C2=C(N3CCc4ccccc43)C(=O)NC2=O)cc1", "answer.label": "not met"}
{"chemical.smiles": "COC(=O)Nc1nc2ccc(Oc3ccc(NC(=O)Nc4cccc(Br)c4)cc3)cc2[nH]1", "answer.label": "met"}
{"chemical.smiles": "CS(=O)(=O)CCNCc1ccc(-c2ccc3ncnc(Nc4ccc(OCc5cccc(C(F)(F)F)c5)cc4)c3c2)o1", "answer.label": "not met"}
{"chemical.smiles": "O=C1NC(=O)C(c2ccccc2Cl)=C1Nc1cc(Cl)c(O)c(Cl)c1", "answer.label": "met"}
{"chemical.smiles": "CCn1c(-c2nonc2N)nc2c(C#CC(C)(C)O)ncc(OC[C@@H]3CCCN3)c21", "answer.label": "met"}
